Molecular target: FLT4 (VEGFR3) (Homo sapiens, UniProt P35916)
Sequence (P35916 25-1363): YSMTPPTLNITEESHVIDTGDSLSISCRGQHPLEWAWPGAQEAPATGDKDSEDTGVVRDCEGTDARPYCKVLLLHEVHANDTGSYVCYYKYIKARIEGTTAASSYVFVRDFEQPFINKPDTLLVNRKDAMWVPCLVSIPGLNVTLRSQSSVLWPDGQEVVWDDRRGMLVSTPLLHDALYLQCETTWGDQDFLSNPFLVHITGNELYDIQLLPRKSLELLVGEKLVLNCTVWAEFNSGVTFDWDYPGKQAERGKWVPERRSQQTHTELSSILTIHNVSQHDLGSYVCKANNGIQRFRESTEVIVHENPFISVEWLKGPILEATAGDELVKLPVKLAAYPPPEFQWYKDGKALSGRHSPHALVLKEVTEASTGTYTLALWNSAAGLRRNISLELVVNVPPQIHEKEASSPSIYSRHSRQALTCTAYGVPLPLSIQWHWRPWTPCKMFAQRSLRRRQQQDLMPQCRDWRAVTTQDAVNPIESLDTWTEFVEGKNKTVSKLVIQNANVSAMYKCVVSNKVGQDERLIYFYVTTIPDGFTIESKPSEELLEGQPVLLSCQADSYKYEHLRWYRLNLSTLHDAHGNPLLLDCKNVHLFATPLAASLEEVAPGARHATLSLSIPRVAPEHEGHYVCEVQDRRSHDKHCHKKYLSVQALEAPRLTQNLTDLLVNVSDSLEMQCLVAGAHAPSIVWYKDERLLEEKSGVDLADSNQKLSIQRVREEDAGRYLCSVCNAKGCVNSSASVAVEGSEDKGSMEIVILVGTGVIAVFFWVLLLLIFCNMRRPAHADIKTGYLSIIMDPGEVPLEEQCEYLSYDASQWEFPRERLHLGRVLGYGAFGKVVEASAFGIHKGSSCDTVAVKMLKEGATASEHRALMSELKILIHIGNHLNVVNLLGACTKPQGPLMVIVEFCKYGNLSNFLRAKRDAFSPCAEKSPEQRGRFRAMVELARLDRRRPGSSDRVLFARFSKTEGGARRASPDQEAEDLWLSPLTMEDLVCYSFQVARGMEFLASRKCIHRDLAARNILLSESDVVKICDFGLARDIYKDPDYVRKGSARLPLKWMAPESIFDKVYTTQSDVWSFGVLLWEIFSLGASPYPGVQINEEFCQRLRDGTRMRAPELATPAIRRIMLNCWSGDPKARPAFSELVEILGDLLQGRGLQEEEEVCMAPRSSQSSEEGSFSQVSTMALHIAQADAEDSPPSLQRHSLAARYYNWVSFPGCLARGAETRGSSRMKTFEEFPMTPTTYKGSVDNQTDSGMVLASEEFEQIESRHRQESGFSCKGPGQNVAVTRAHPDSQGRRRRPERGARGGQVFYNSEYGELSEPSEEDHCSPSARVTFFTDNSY
Endpoint label: pIC50
Answers are plain numbers, as −log10 of the molar value.

**Query** Report value: pIC50, system: FLT4 (VEGFR3) (Homo sapiens, UniProt P35916), compound: CC(C)n1nnc2ccc(-c3nc(Nc4ccc(CNC(=O)C5(C(=O)Nc6ccccc6)CC5)cc4)ncc3F)cc21 [12O]
**Result** 7.17

----------
Target: CDK5/p25(h) (Homo sapiens, UniProt Q00535)
Sequence (Q00535 whole entry): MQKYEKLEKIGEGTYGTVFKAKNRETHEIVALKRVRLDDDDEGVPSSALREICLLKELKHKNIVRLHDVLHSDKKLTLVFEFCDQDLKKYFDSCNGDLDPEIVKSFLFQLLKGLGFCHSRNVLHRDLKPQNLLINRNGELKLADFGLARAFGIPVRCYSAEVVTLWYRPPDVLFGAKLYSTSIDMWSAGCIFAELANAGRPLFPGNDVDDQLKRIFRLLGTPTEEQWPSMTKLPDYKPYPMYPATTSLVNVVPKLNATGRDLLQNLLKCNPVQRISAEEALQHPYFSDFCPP
Sequence (Q15078 99-307 partner limits assumed): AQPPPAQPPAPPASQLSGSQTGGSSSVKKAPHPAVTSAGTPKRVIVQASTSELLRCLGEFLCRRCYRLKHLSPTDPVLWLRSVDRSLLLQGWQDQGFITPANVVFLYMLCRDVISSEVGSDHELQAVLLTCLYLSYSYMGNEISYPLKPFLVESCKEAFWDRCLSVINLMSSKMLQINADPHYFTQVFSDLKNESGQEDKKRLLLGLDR
Test: Kinase inhibition assay (Eurofins KinaseProfiler)
Details: ATP at Km
Experimental: Kinase inhibition profiles were determined using KinaseProfiler services provided by Eurofins, and ATP concentrations used are the Km of corresponding kinases. CDK1/cyclinB (h) (CDK2/cyclinA (h), CDK3/cyclinE (h), CDK4/CyclinD(h), CDK5/p25 (h), CDK6/cyclinD3 (h)) were incubated with 8 mM MOPS pH 7.0, 0.2 mM EDTA, 0.1 mg/mL histone H1, 10 mM MgAcetate and [gamma-33P]-ATP (specific activity and concentration as required). All the reactions above were initiated by the addition of the Mg/ATP mix. […]
Endpoint label: IC50 (nM)
Give bare numbers, in nM.

**Query** Supply measured IC50 of CC(C)n1nnc2ccc(-c3nc(Nc4ccc(CNC(=O)C5(C(=O)Nc6ccccc6)CC5)cc4)ncc3F)cc21 [12O] in your reply.
**Result** 6
